Every entry's value here was drawn from patent US20220081395A1.

Would you kindly list P. aeruginosa MBIC: % of Ajoene positive control IC50 for each of these compounds?
tested on: Pseudomonas aeruginosa; assay: Minimum Biofilm Inhibition Concentration (MBIC) assay, biofilm formation, crystal violet; format: cell-based; details: IC50 of compound as % of IC50 of ajoene in the same experiment; <100% more effective than ajoene

Answer with the recorded P. aeruginosa MBIC: % of Ajoene positive control IC50 of [O-][S+](Cc1ccccc1)Cc1ccccc1SSCc1ccccc1 (stereo not drawn) only.
39.9 % of Ajoene

Supply recorded P. aeruginosa MBIC: % of Ajoene positive control IC50 for COc1ccc(CSSc2cccc(C[S+]([O-])Cc3ccccc3)c2)cc1 (stereo not drawn) here.
20 % of Ajoene

Input CC(C)CSSc1cccc(C[S+]([O-])Cc2ccccc2)c1 (stereo not drawn) , output reported P. aeruginosa MBIC: % of Ajoene positive control IC50.
32 % of Ajoene

Return P. aeruginosa MBIC: % of Ajoene positive control IC50 (reported value) for this compound: [O-][S+](Cc1ccccc1)Cc1cccc(SSCc2ccc(C(F)(F)F)cc2)c1 (stereo not drawn)
32 % of Ajoene

Identify measured P. aeruginosa MBIC: % of Ajoene positive control IC50 associated with [O-][S+](Cc1ccccc1)Cc1cccc(SSCc2ccccc2)c1 (stereo not drawn)
21 % of Ajoene

Could you please provide reported P. aeruginosa MBIC: % of Ajoene positive control IC50 for O=S(=O)(Cc1ccccc1)Cc1cccc(SSCc2ccc(F)cc2)c1 ? Thanks!
35 % of Ajoene

For the compound COc1ccc(CSSc2ccccc2C[S+]([O-])Cc2ccccc2)cc1 (stereo not drawn) , give its measured P. aeruginosa MBIC: % of Ajoene positive control IC50 value.
58 % of Ajoene

Give the reported value of P. aeruginosa MBIC: % of Ajoene positive control IC50 for this record: C=CCSSc1cccc(CS(=O)(=O)Cc2ccco2)c1
100 % of Ajoene

Quote P. aeruginosa MBIC: % of Ajoene positive control IC50 reported for C=CCSSc1ccccc1C[S+]([O-])Cc1ccccc1 (stereo not drawn) please.
76 % of Ajoene

Given CCC(C)CSSc1cccc(CS(=O)(=O)Cc2ccccc2)c1 (stereo not drawn) , respond with its P. aeruginosa MBIC: % of Ajoene positive control IC50.
94 % of Ajoene

Read the entry CCC(C)CSSc1cccc(C[S+]([O-])Cc2ccccc2)c1 (stereo not drawn) and write its reported P. aeruginosa MBIC: % of Ajoene positive control IC50.
15 % of Ajoene

Please report the measured P. aeruginosa MBIC: % of Ajoene positive control IC50 for C=CCSSc1cccc(CS(=O)(=O)Cc2ccccc2)c1 [drawing 76]
82 % of Ajoene
